Test: qHTS assay to identify small molecule agonists of the estrogen receptor alpha (ER-alpha) signaling pathway in the presence of an antagonist - cell viability counter screen (AID 1259386);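 further: cells exposed to compounds for 22 h at 37 °C before the viability read; nearly all actives have a fitted effect of over 30% in size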; further: potency means the concentration at half of the fitted maximal effect
Details: VM7Luc4E2 viability, CellTiter-Fluor fluorescence, 22 h; series mostly up to 92.4 µM
Records with an inconclusive call do not appear. Calls of active or inactive are those of the source. The call rests on the fitted dose curve; in most records, active means well fitted cell-killing curve with a large enough effect in the repeat runs; inconclusive means weak or mixed curves, or effect the other way; inactive means no such curve, though single readings can be large or run the other way.
quantity_name: Potency

Illustrative cases are given below, each with its answer.
INSERT INTO measurements (compound, result) VALUES
  ('CC(=O)[O-].CC(=O)[O-].[Hg+2]', '21.7 µM (active)'),
  ('c1ccc2c(c1)[nH]c1cnccc12', 'inactive'),
  ('CC(=[OH+])/C=C(/C)[O-].CC(=[OH+])/C=C(\C)[O-].CC(=[OH+])/C=C(\C)[O-].[Al]', 'inactive'),
  ('CN(CCCC(O)c1cccnc1)N=O (stereo unspecified)', 'inactive'),
  ('CCC(C)c1cc([N+](=O)[O-])cc([N+](=O)[O-])c1OC(=O)C=C(C)C (stereo unspecified)', '54.5 µM (active)');

For the next question, use this compound.
Q: Using the record for CCC[CH2][Sn]([CH2]CCC)([CH2]CCC)[O]C(=O)c1ccccc1 , state its measured Potency.
A: 10.9 µM (active)

---

Assay: qHTS RealTime-Glo MT Cell Viability Assay in HEK293 cells - 8 hour (AID 1224887); further: nearly all actives have a fitted effect of over 50% in size
Conditions: RealTime-Glo luminescence; series mostly up to 76.8 µM
From the text: U.S. Tox21 Program National Center for Advancing Translational Sciences [NCATS] NIH Chemical Genomics Center [NCGC] U.S. Environmental Protection Agency [EPA] National Institutes of Environmental Health Sciences [NIEHS] National Toxicology Program [NTP] U.S. Food and Drug Administration [FDA] Tox21 Assay Overview: Measure of cell viability is critical in the cell-base assay. Analysis of cell viability is necessary for the characterization of cell responses to cytotoxic drugs and environmental stress. […]
Inconclusive results are not listed. The source made the active and inactive calls. The call rests on the fitted dose curve; in most records, active means well fitted cell-killing curve with a large enough effect in the repeat runs; inconclusive means weak or mixed curves, or effect the other way; inactive means flat fitted curve, though single readings scatter.
Result category, one only: active, inactive

Sample answers from the record:
INSERT INTO assay_data (compound, class) VALUES
  ('COP(=O)(CCC(=O)NCO)OC', 'inactive'),
  ('CCOP(=S)(OCC)OC(Cl)C(Cl)(Cl)Cl (stereo unspecified)', 'inactive'),
  ('BrCBr', 'inactive'),
  ('Cc1ccc(C(=O)Cl)cc1', 'inactive'),
  ('CC(C)CCCCCOC(=O)c1ccccc1C(=O)OCCCCCC(C)C', 'inactive'),
  ('Oc1ccc(I)cc1', 'inactive');

Q: Would you mind telling me which call this test gave C[C@@H]1CC[C@@]2(OC1)O[C@H]1[C@@H](O)[C@H]3[C@@H]4CC[C@H]5C[C@@H](O[C@@H]6O[C@H](CO)[C@H](O[C@@H]7O[C@H](CO)[C@@H](O)[C@H](O[C@@H]8OC[C@@H](O)[C@H](O)[C@H]8O)[C@H]7O[C@@H]7O[C@H](CO)[C@@H](O)[C@H](O[C@@H]8O[C@H](CO)[C@@H](O)[C@H](O)[C@H]8O)[C@H]7O)[C@H](O)[C@H]6O)[C@H](O)C[C@]5(C)[C@H]4CC[C@]3(C)[C@H]1[C@@H]2C ?
A: active

Q: Would you mind telling me which call this test gave NNC(=O)c1ccccc1 ?
A: inactive

Q: Would you mind telling me which call this test gave CC(=O)c1ccc(-c2ccccc2)cc1 ?
A: inactive

Q: Would you mind telling me which call this test gave CCCCCCCCCCCCCC[P+](CCCCCC)(CCCCCC)CCCCCC (tested in a mixture with another compound) ?
A: active

Q: Would you mind telling me which call this test gave CN(CCCC(O)c1cccnc1)N=O (stereo unspecified) ?
A: inactive

Q: Would you mind telling me which call this test gave CN(C)CCc1c[nH]c2ccc(O)cc12 ?
A: inactive

Q: Would you mind telling me which call this test gave ClCCN1CCOCC1 ?
A: inactive

Q: Would you mind telling me which call this test gave O=C/C(Cl)=C(/Cl)C(=O)O ?
A: inactive

Q: Would you mind telling me which call this test gave C=CC(=O)N(C)C ?
A: inactive

Q: Would you mind telling me which call this test gave CC(C)[C@H](C(=O)OC(C#N)c1cccc(Oc2ccccc2)c1)c1ccc(OC(F)F)cc1 (stereo partly specified) ?
A: inactive

Q: Would you mind telling me which call this test gave C[C@H]1CC[C@@H]2[C@@H](C)[C@H]3[C@H](C[C@H]4[C@@H]5CC=C6CC(O[C@@H]7O[C@H](CO)[C@H](O)[C@H](O[C@@H]8O[C@H](CO)[C@@H](O)[C@H](O)[C@H]8O)[C@H]7O[C@H]7O[C@@H](C)[C@H](O)[C@@H](O)[C@H]7O)CC[C@]6(C)[C@H]5CC[C@]34C)N2C1 (stereo partly specified) ?
A: active

Q: Would you mind telling me which call this test gave Oc1cc(Cl)c(Cl)c(Cl)c1 ?
A: inactive

Q: Would you mind telling me which call this test gave Clc1ccc(C(c2ccc(Cl)cc2)C(Cl)(Cl)Cl)cc1 ?
A: active

Q: Would you mind telling me which call this test gave CN(C)S(=O)(=O)N(SC(F)(Cl)Cl)c1ccccc1 ?
A: active

Q: Would you mind telling me which call this test gave CC(C)(C)OO ?
A: inactive

Q: Would you mind telling me which call this test gave CCc1cc(C)cc(CC)c1-c1c(OC(=O)C(C)(C)C)n2n(c1=O)CCOCC2 ?
A: inactive

Q: Would you mind telling me which call this test gave O=C(CCl)Nc1ccccc1 ?
A: inactive

Q: Would you mind telling me which call this test gave CCN ?
A: inactive

Q: Would you mind telling me which call this test gave O=c1[nH]c2ccccc2n1CCCN1CCC(n2c(=O)[nH]c3cc(Cl)ccc32)CC1 ?
A: active

Q: Would you mind telling me which call this test gave CCC(C)c1cc(C(C)(C)C)cc(-n2nc3ccccc3n2)c1O (stereo unspecified) ?
A: inactive

Just for reference, PubChem BioAssay (Tox21) is where these values come from.
